Measured Efficacy (%) values are reported for all entries that follow.
# Tested on: post-tetraploid HPT1 cells
# experiment notes: Cell proliferation assay, post-tetraploid HPT1
# Type: cell-based, human
# setup conditions: HPT1, five days, average of three experiments
Numeric answer only, unit % assumed.

c1nc2nc(Nc3ccc(N4CCOCC4)cc3)nc(NC3CCCCC3)c2[nH]1 [reversine] ... 58
CCn1cc(-c2ccnc3[nH]c(-c4cccc(CN(C)C)c4)cc23)c(-c2ccc(NC(=O)N(C)C)cc2)n1 [GSK-1070916] ... 32
COc1cccc2c1C(=O)c1c(O)c3c(c(O)c1C2=O)C[C@@](O)(C(=O)CO)C[C@@H]3O[C@H]1C[C@H](N)[C@H](O)[C@H](C)O1 [doxorubicin] ... 99
O=C(O)c1ccc(Nc2ncc3c(n2)-c2ccc(Cl)cc2C(c2c(F)cccc2F)=NC3)cc1 [MLN-8054] ... 61
Cc1cc(N2CCOCC2)ccc1Nc1nc(NC2CCCCC2)c2[nH]cnc2n1 [MPI-047605] ... 52
CCc1cccc(CC)c1NC(=O)c1ccn2c1CCc1cnc(Nc3ccc(N4CCN(C)CC4)cc3OC)nc1-2 [NTRC 0066-0] ... 59
N[C@@H](CSC(c1ccccc1)(c1ccccc1)c1ccccc1)C(=O)O [STLC, S-trityl-L-cysteine] ... 90

-- ask Fill in: Efficacy (%) of CC[C@@H]1C(=O)N(C)c2cnc(Nc3ccc(C(=O)N[C@H]4CC[C@H](N5CCN(CC6CC6)CC5)CC4)cc3OC)nc2N1C(C)C [volasertib] is ___
-- reply 82

###

# Test system: pediatric T-ALL patient cell samples
# experiment notes: Viability assays with T-ALL patient samples
# Type: cell-based, human
# setup conditions: Homo sapiens, 72 h, patient sample 4126, three-day assay; read-out: IC50
property name: pIC50
Convention used: pIC50 is expressed as -log10 of the molar concentration.

-- ask Entry under review: CC(C)C[C@H](NC(=O)[C@H](Cc1ccccc1)NC(=O)c1cnccn1)B(O)O . Reported pIC50?
-- reply 8.52

###

# Test system: patient-derived colorectal carcinoma organoids
# experiment notes: Organoids drug sensitivity and viability assay
# Format: cell-based, human
# setup conditions: Homo sapiens, 72 h, organoid p28, three days; read-out: IC50
property name: IC50 (nM)
Unit nM implied. Number only.

-- ask Which value of IC50 has been reported for c1nc2nc(Nc3ccc(N4CCOCC4)cc3)nc(NC3CCCCC3)c2[nH]1 in the records?
-- reply 757

###

# System: pediatric T-ALL patient cell samples
# experiment notes: Viability assays with T-ALL patient samples
# Type: cell-based, human
# setup conditions: Homo sapiens, 72 h, patient sample 2323, three-day assay
property name: pIC50
Reminder that pIC50 means the negative base-10 logarithm of the concentration expressed in mol/L.

-- ask Need pIC50 of COc1cccc2c1C(=O)c1c(O)c3c(c(O)c1C2=O)C[C@@](O)(C(C)=O)C[C@@H]3O[C@H]1C[C@H](N)[C@H](O)[C@H](C)O1 [daunorubicin] , thanks.
-- reply 7.10

###

# Test system: patient-derived colorectal carcinoma organoids
# experiment notes: Organoids drug sensitivity and viability assay
# Assay type: cell-based, human
# setup conditions: organoid p28, three days; read-out: IC50
property name: IC50 (nM)
Just the number in nM, nothing appended.

-- ask Value lookup for IC50; key = CCc1cccc(CC)c1NC(=O)c1ccn2c1CCc1cnc(Nc3ccc(N4CCN(C)CC4)cc3OC)nc1-2
-- reply 37

Reference for the values: paper PMC5503534
